TESTED_TARGET: recombinant full-length human GSK3β (Homo sapiens, UniProt P49841)
Construct: recombinant full-length human GSK3β (Upstate); purchased Upstate
Sequence (P49841 whole entry): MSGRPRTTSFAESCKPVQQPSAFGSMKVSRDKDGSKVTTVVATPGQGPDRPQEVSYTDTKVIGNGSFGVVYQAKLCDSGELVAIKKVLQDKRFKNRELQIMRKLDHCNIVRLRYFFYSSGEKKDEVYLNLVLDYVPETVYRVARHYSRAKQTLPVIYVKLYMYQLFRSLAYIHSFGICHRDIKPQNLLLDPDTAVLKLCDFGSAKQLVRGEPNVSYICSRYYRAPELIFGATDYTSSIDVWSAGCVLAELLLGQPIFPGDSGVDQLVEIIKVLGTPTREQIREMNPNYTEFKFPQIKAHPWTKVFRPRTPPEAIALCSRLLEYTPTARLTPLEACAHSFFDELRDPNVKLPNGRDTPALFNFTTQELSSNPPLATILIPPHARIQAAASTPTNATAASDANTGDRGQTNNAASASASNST
ASSAY_INFO: Luciferase-coupled cell-free GSK3β kinase assay
Format: biochemical
RECORDED_CONDITIONS: Table 1
Procedure: For compounds in Tables 1 and 2, IC50 (μM) for GSK3β enzyme in cell free assay is provided as follows: Luciferase-Coupled Protein Kinase Assays All coupled-luciferase assays are performed by using a brief incubation with firefly luciferase (Promega) after completion of the kinase assay. KinaseGlo Plus is used for reading kinase reactions with ATP>10 μM, KinaseGlo for ATP <10 μM. The assay volume in a 384-well plate for the kinase reaction is 30 microliters. […]
READOUT_KIND: IC50

* Nc1c(F)c(NCCNC(=O)c2ccccc2)c(F)c2c1c(=O)c(C(=O)O)cn2C1CC1 [compound 30] | 0.5 to 1 µM
* Nc1cc(NCCNc2ccccn2)cc2c1c(=O)c(C(=O)O)cn2C1CC1 [compound 36] | > 1 µM
* Nc1c(F)c(NCCCn2ccnc2)c(F)c2c1c(=O)ccn2C1CCCC1 [compound 74] | < 0.1 µM
* Nc1c(F)c(NCCNC(=O)c2ccccc2)c(F)c2c1c(=O)ccn2C1CC1 [compound 33] | 0.5 to 1 µM
